- experimental.details: Cytotoxicity activity against human HepG2 cells assessed by CellTiter-Glo luminescent cell viability assay.
- Assay type: toxicity, cell-based
- Design: assay stage confirmatory assay, source tissue liver
- condition.summary: HepG2 cells, read-out: IC50 relative
Structures can show the parent of a compound that is named as a salt. Activity calls are given as the source filed them. The rule behind the calls is not given here.
Your reply should match one of these outcome classes. 1 (active), -1 (inactive)

// param item: CN[C@H]1CCCN(C(=O)c2ccc(CN)cc2)C1 ; yields the recorded call
-1

// param item: CCN(C(=O)c1c[nH]n2c1nc(=O)c1ccccc12)[C@@H](C)c1ccc(F)cc1 ; yields the recorded call
1

// param item: CC(C)c1cnc(NC(=O)N2CC3(CN(C)C(=O)O3)C2)s1 ; yields the recorded call
-1

// param item: CCN1CCN(Cc2ccc(-c3cc4c(N[C@H](C)c5ccccc5)ncnc4[nH]3)cc2)CC1 ; yields the recorded call
1

// param item: CCN1CCN(Cc2ccc(C(=O)Nc3ccc(C)c(Oc4ccc5c(c4)CC(=O)N5)c3)cc2C(F)(F)F)CC1 ; yields the recorded call
1

// param item: Cc1occc1-c1cc(NC(=O)N2CCC[C@H]2c2cccn2C)no1 ; yields the recorded call
1

// param item: OC(CN1CCC(Cc2ccc(F)cc2)CC1)c1ccc(Cl)cc1 (stereo unspecified) ; yields the recorded call
-1

// param item: CC1CCN(S(=O)(=O)c2ccc(-c3nnc(C(=O)NCCCN4CCCCCC4)o3)cc2)CC1 ; yields the recorded call
-1

// param item: CON(C)C(=O)N1N=C(c2cc(F)ccc2F)S[C@@]1(CCCN)c1ccccc1 ; yields the recorded call
1

// param item: O=C(Cc1ccsc1)Nc1nc(-c2ccccn2)cs1 ; yields the recorded call
1

// param item: CCc1cccc(NC(=O)N2CCN(c3ccnc(N4CCCC4)n3)CC2)c1 ; yields the recorded call
-1

// param item: Cc1ccc(NC(=O)Nc2ccc(Cl)cc2)cc1NS(C)(=O)=O ; yields the recorded call
1

// param item: COC(=O)N[C@@H](C)CNc1nccc(-c2cn(C(C)C)nc2-c2cc(Cl)cc(NS(C)(=O)=O)c2F)n1 ; yields the recorded call
1

// param item: NCc1ccc(C(=O)NC2CCc3c[nH]nc3C2)cc1 (stereo unspecified) ; yields the recorded call
1

// param item: COc1ccc(OC)c(C(O)CN2CCN(c3cccc(C)c3C)CC2)c1 (stereo unspecified) ; yields the recorded call
1

// param item: CN1CCNc2cc(Br)ccc21 ; yields the recorded call
-1

// param item: CC(C)(C)Cn1c(N)nc2ccc(-c3[nH]c(C(C)(C)C)nc3-c3ccc(F)cc3)nc21 [RALIMETINIB MESYLATE] ; yields the recorded call
1

// param item: Cc1cc(N2CCNCC2)nc2c(C)cccc12 ; yields the recorded call
1

// param item: COc1ccccc1S(=O)(=O)Nc1ccc2c(c1)CN(C)C(=O)N2 ; yields the recorded call
1

// param item: COc1ccc2c(c1)/C(=C/c1cnc[nH]1)C(=O)N2 ; yields the recorded call
1

// param item: CCN(CC)CCCNC(=O)C1CCN(c2ncc(-c3ccccc3)cn2)CC1 ; yields the recorded call
1
